assay: yeast display, Sf9 membrane polyspecificity reagent, FACS + sequencing; frameworks hold sequencing errors

{"columns": ["INPUT_SEQUENCE", "polyreactivity (PSR sort gate)"],
 "data": [
  ["QVQLVESGGGLVQAGGSLRLSCAASGRTFDGYTMGWYRQAPGKERELVAAIRRSGGSTYYADSVKGRFTISRDNAKNTVYLQINSLNPEDTAVYYCAASWRDIYRHYNVYPYDYWGQGTQVTVSS", "low polyreactivity"],
  ["QVQLVESGGGLVQAGGSLRLICAASGSILDGNTMGWYRQAPGKERELVAAITWDGTSTYFADSVKGRFTISRDNAKNTVYLQMNSLKPEDTAVYYCAATKGYSDPSTGYYAYIHYDYWGQGTQVTVSS", "low polyreactivity"]
]}

---

assay: yeast display, Sf9 membrane polyspecificity reagent, FACS + sequencing; frameworks hold sequencing errors
ASSAY_ENDPOINT: polyreactivity (PSR sort gate)

Worked examples, 6 sequences total:
{"columns": ["INPUT_SEQUENCE", "polyreactivity (PSR sort gate)"],
 "data": [
  ["QVQLVESGGGLVQAGGSLRLSCAASGSTFYAYAMGWYRHAPGKERELVAAIDSGGSTYYADSVKGRFTISRDNAKNTVYFQMNSLKPEDTAVYYCAVRHRYTRAYWGRDYWGQGTQVTVSS", "low polyreactivity"],
  ["QVQLVESGGGIVQAGGSLRLSCAASGRIIGYYAMGWYIQAPGKERELVARISSSGGSTYYADSVKGRFTISRDNAKNTVYLQMNSLKPEVTAVYYCNTASNRFPGWRAEFDYWGQGTQVTVSS", "low polyreactivity"],
  ["QVQLVESRGGLVQAGGSLRLSCAASGSIFYRYAMGWYRPAPWKERELVAAIRRGGSTNYADSVKGRFTISRDNAKNTVYLQMNSLKPEDTAVYYCAAGRFTYAAQRYEYWGQGTQVTVSS", "high polyreactivity"],
  ["QVQLVESGGGLVQAGGSLRLSCAASGSIFPWYAMGWYRQEPGKERELVAAISKSGAGTYYADSVKGRFTISRDTAKNTVYLQMNSLKPEDTAVYYCNARWRSNRAARYDFWGQGTQVTVSS", "high polyreactivity"],
  ["QDQLVESGGGLVQAGCSLRLSCAASGFIFPNYAMGWYRQAPGKERELVAAISTDGSTNYADSVKGRFTISRDNAKTTVYLQMNSLKTEDTAVYYCAKYGRVKPQRYDYDYWGQGTQVTVSS", "high polyreactivity"],
  ["QVQLVESGGGLVQAGGSLRLSCAASGGTFWDYAMGWYRQAPGKERELVAAITYGTASTDYADSVKGRFTISRDNAKNTVYLQMNSLKPEDTAVYYCAARWNQYPYSYSTYDYWGQGTQVTVSS", "low polyreactivity"]
]}

Query string: Input QVQLVESGGGLVQAGGSLRLSCAASGSTFQGNAMGWYRQAPGKERELVAAISKRGGSTYYADSVKGRFTISRDNAKNTVYLQMNSLKPEDTAVYFCNAKLFASRGYYFGGAYQYGYWGQGTQVTVSS , output reported polyreactivity (PSR sort gate).
Result string: high polyreactivity

Query string: Input QVQLVESGGGLVQAGGSLRLSCAASGSIFPTYAMGWYRQAPGKERELVAAISWDGDITYYADSVKGRFTISRDHAKNTVYLQMNSLKPEDTAVYYCNASLFIEIYSFQYDDHFAEYGYWGQGTQVTVSS , output reported polyreactivity (PSR sort gate).
Result string: high polyreactivity

Query string: Input LVQLVESGGGLVQAGGSLRLSCAASGFISPSYALGWYRQAPGKERELVAAIRSSDGSTYYADSVKGRFTISRDNAKNTAYVQMNSRKPEDTAVYYCAAGGSSYRDDYWGQGSQVTVSS , output reported polyreactivity (PSR sort gate).
Result string: low polyreactivity

Query string: Input QVQLVESGGGLVQAGGSLRLSCAASGIIFSSYAMGWYRQAPGKERELVAAISTSGGRTYYADSVKGRFTISRDNAKNTVYLQMNSLKPKDTAVYYCAARYGYWGQGTQVTVSS , output reported polyreactivity (PSR sort gate).
Result string: high polyreactivity

Query string: Input QVQLVESGGGLVQAGGSLRLSCAASGSTFFYNAMGWYRQAPGKERELVAGITSGGSTYYADSVKGRFTISRDNAKNTVYLQMNSLKPEDTAVYYCAVDVPPWDYDYWGQGTQVTVSS , output reported polyreactivity (PSR sort gate).
Result string: low polyreactivity

Query string: Input QVQLVESGGGLVQAGGSLRISCAASGLTFRLYVMGWYRQAPGKERELVATISRSGGSTHYADSVKGRFTISRDNAKNTVYLQMNSLKPEDTAVYDCAARLFYFGSDFDYWGQGTQVTVSS , output reported polyreactivity (PSR sort gate).
Result string: high polyreactivity

Query string: Input QVQLVESGGGLVQEGGSLRLSCAASGLTFYYYAMGWYRPAPGKERELVAAISRSGGSTYYADSVKGRFTISRDNAKITVYLQMNSLIPEDTAVYYCASRDHAGYYKYDYWGQGTQVTVSS , output reported polyreactivity (PSR sort gate).
Result string: high polyreactivity

Query string: Input QVQLVESGGGLVQAGGSLRLSCAASGRTFGYNTMGWYRQQPGKEREFVAAINYSGGSTYYADSVKGRFTISRDYGKNTVYLQMNSLKPEDTAVYYCNAKPRWYVPYDYWGQGTQVTVSS , output reported polyreactivity (PSR sort gate).
Result string: high polyreactivity

Query string: Input QVQLVESGGGLVQAGGSLRLSCAASGFTFPYYAMGWYRQAPGTERELVASNSRSGSTNYADSVKGRFTISRDNAKNTVYLQMNSLKPEDTAVYYCAAQLYSRGGYWGHGTQVTVSS , output reported polyreactivity (PSR sort gate).
Result string: high polyreactivity

Query string: Input QVQLVESGGGLVQAGGSLRLSCAASGRILGYYAMGWSRQAPGKEREFVAAITTRGGNTYYADSVKGRFTISRDNAKNTVYLQMNSLKPEDTAVYYCAAESYTYRDAPTYFTRMYYWGQGTQVTVSS , output reported polyreactivity (PSR sort gate).
Result string: high polyreactivity

---

assay: yeast display, Sf9 membrane polyspecificity reagent, FACS + sequencing; frameworks hold sequencing errors
ASSAY_ENDPOINT: polyreactivity (PSR sort gate)

Worked examples, 5 sequences total:
{"columns": ["INPUT_SEQUENCE", "ASSAY_ENDPOINT", "MEASUREMENT"],
 "data": [
  ["QVQLVESGGGLVQAGGSLRLSCAASGSTFHDYAMGLYRQAPGKERELVAAISNSGGSTYYADSVKGRFTISRDNAKNTVYLQMNSLKPEDTAVYYCAARKYVAGHKYIMNYWGQGTQVTVSS", "polyreactivity (PSR sort gate)", "low polyreactivity"],
  ["QVQLVESGGGLVQAGGSRRLSCAASGFTFQDYAMGWYRQAPGKERELVAAISKSGGRTYYADSVKRRFTISRDNAKKTVYLEMNSLKPEETAVYYCAALPLYSQDYDYWGPGTQVTVSS", "polyreactivity (PSR sort gate)", "high polyreactivity"],
  ["QVQLVESGGGLVQAGGSLRLSCAASGFTFGTYTMGWYRQAPGKERELVAAIRSSGGRTYYADSVKGRFTISRDNAKNTVYLQMNSLKPEDTAVYYCAAVLFGYPRTFGTWYDRYYYWGQGTQVTVSS", "polyreactivity (PSR sort gate)", "high polyreactivity"],
  ["QVQLVESGGGLVQAGGSLRLSCDASGRIFRVYAMGWYRPAPGKERELFAAISWSGGRTYYADSVKGRFTISRDNAKNTVYLQMNSLKPEDTAVYYCAAERGGPTYYSGGDYDYWGQGTQVTVSS", "polyreactivity (PSR sort gate)", "high polyreactivity"],
  ["QVQHVESGGGLVHAGGSLRLSCAASGLIFRNNAMVLYRQAPGTERELDASITSDGSTNYADSVKGRFRISRDNAKNSFYLQMNSLKPEDTAVYYCAADGYTYWYYQLIPDYDYWGQGTQVTVSS", "polyreactivity (PSR sort gate)", "low polyreactivity"]
]}

Query string: Input QVQLVESGGGLVQEGGSLRLSCAASGFIFHVNAMGWYRQAPGKERELVARITTSGGNTFYADSVKGRFTISRDNAKNTVYLQMNSLKPEDTAVYYCAIRYRYSVGWPVKNSAFGYWGQGTQVTVSS , output reported polyreactivity (PSR sort gate).
Result string: low polyreactivity

Query string: Input QVQLVESGGGLVQAGGSLRLSCAAYGLTFPYYVMGWYRPAPGKERELVAAISSSGGSTYYADSVKGRFTISRDNAKNTVYLQMNSLKPEDTAVYYCAAVEIYLAYDLPYWSEMDYWGQGTQVTVSS , output reported polyreactivity (PSR sort gate).
Result string: low polyreactivity

---

experiment: yeast display, Sf9 membrane polyspecificity reagent, FACS + sequencing; frameworks hold sequencing errors

{"columns": ["INPUT_SEQUENCE", "polyreactivity (PSR sort gate)"],
 "data": [
  ["QLQLVESGGGLVQAGGSLRLSCAASGYTFKWYAMGCYRQAPGKERELVAAIRGSGGSSYYAVSVKGRFTISRDNAKNTVYLQMNSLKPEDTAGYYCNAVLRWAQNPRIFLGYDYWGQGTQVTVSS", "high polyreactivity"],
  ["QVQLVESVGGLVEAGGSLRLSCAASGSILGGYAMGWYLQAPGKESELVAAITSSGGRTYYADCVKGRFTMSRDNAKNTVYLQMNSLKPEDTAVYYCAARYSRWRYNYKDYAYWGQGTQVTVSS", "high polyreactivity"]
]}
